tested on: Rhizomucor pusillus 46342; assay: In vitro antifungal assay (Example IX), microdilution broth, MEC; format: cell-based; conditions: minimum effective concentration (shortening of hyphae), 35° C., 40-48 h, RPMI1640
Attribute: minimal effective concentration

| compound | result |
| --- | --- |
| Nc1ncccc1-c1cc(Cc2cnc(OCc3ccccc3)c(F)c2)no1 [compound 257] | 0.1 to 1 µg/mL |
| Nc1ncccc1-c1cc(Cc2ccnc(Oc3ccccc3)c2)no1 [compound 88] | > 1 µg/mL |
| Cn1cc(Cc2ccc(Cc3cc(-c4cccnc4N)on3)cc2)cn1 [compound 11] | > 1 µg/mL |

q: Quick one: minimal effective concentration of Nc1ncccc1-c1cc(Cc2ccc(Cc3cccnc3F)cc2)no1 [compound 69] ?
a: 0.1 to 1 µg/mL

q: Quick one: minimal effective concentration of Nc1ncccc1-c1cc(Cc2ccc(Cc3ccccc3)cc2)no1 [compound 8] ?
a: 0.1 to 1 µg/mL

q: Quick one: minimal effective concentration of Nc1ncccc1-c1cc(Cc2ccc(Nc3cccc(F)c3F)nc2)no1 [compound 72] ?
a: 0.1 to 1 µg/mL

----------
Attribute: minimal effective concentration
test system: Rhizomucor pusillus 46342; experiment: In vitro antifungal assay (Example IX), microdilution broth, MEC; type: cell-based; conditions: minimum effective concentration (shortening of hyphae), 35° C., 40-48 h, RPMI1640

| molecule | minimal effective concentration |
| --- | --- |
| Nc1ncccc1-c1cc(Cc2ccc(CNc3ncccn3)cc2)no1 [compound 32] | 0.1 to 1 µg/mL |

q: Quick one: minimal effective concentration of Nc1ncccc1-c1cc(Cc2ccc(Oc3nc(F)c(F)cc3F)cc2)no1 [compound 241] ?
a: 0.1 to 1 µg/mL

q: Quick one: minimal effective concentration of Nc1ncccc1-c1cc(Cc2ccc(OCc3ccc(F)nc3)cc2)no1 [compound 116] ?
a: > 1 µg/mL

q: Quick one: minimal effective concentration of Nc1ccc(-c2cc(Cc3ccc(Oc4cccc(F)n4)cc3)no2)c(N)n1 [compound 134] ?
a: 0.1 to 1 µg/mL

q: Quick one: minimal effective concentration of Nc1ncccc1-c1cc(Cc2ccc(Oc3cc(F)cc(F)c3)nc2)no1 [compound 81] ?
a: 0.1 to 1 µg/mL

q: Quick one: minimal effective concentration of Nc1ncccc1-c1cc(Cc2ccnc(OCc3ccccc3)c2)no1 [Example 148] ?
a: 0.1 to 1 µg/mL

q: Quick one: minimal effective concentration of Nc1ncccc1-c1cc(Cc2ccc(Cc3cccc(C(F)(F)F)n3)cc2)no1 [Example 151] ?
a: 0.1 to 1 µg/mL

----------
test system: Aspergillus fumigatus MYA3626; experiment: In vitro antifungal assay (Example IX), microdilution broth, MEC; assay type: cell-based; conditions: minimum effective concentration (shortening of hyphae), 35° C., 40-48 h, RPMI1640
quantity-kind: minimal effective concentration

| molecule | minimal effective concentration |
| --- | --- |
| Nc1ncccc1-c1cc(Cc2ccc(Oc3ccccn3)cc2)no1 | 0.01 to 0.1 µg/mL |
| Nc1ncccc1-c1cc(Cc2ccc(Oc3ncc(Cl)cc3F)cc2)no1 | 0.1 to 1 µg/mL |
| Nc1ncccc1-c1cc(Cc2ccc(Oc3ccc(F)cc3F)nc2)no1 | 0.01 to 0.1 µg/mL |
| Nc1ncccc1-c1cc(Cc2ccc(CNc3cc(F)ccc3F)cc2)no1 | 0.1 to 1 µg/mL |
| Nc1ncccc1-c1cc(Cc2ccc(OCc3cccnc3)nc2)no1 | 0.01 to 0.1 µg/mL |

q: Quick one: minimal effective concentration of `Nc1ncccc1-c1cc(Cc2ccc(/C=C/C3CCCCC3)cc2)no1` ?
a: 0.1 to 1 µg/mL

q: Quick one: minimal effective concentration of `Nc1ncccc1-c1cc(Cc2ccc(S(=O)(=O)N3CCOCC3)cc2)no1` ?
a: > 1 µg/mL

q: Quick one: minimal effective concentration of `Nc1ncccc1-c1cc(Cc2ccc(CNc3ncccn3)cc2)no1` ?
a: 0.01 to 0.1 µg/mL

----------
Attribute: minimal effective concentration
Tested on: Rhizomucor pusillus 46342
Assay: In vitro antifungal assay (Example IX), microdilution broth, MEC
Assay type: cell-based
Conditions: minimum effective concentration (shortening of hyphae), 35° C., 40-48 h, RPMI1640
Method: Measurement of antifungal activity: […] Candida albicans 90028, Aspergillus fumigatus MYA3626, Rhizomucor pusillus 46342 and Cryptococcus neoformans […] strains were obtained from American Type Culture Collection (ATCC). […] (A. fumigatus) and 35° C. (R. pusillus). […] The resulting spore suspension was counted and diluted into RPMI1640 medium to adjust to a final suspension of 1-2×10^4 spores/mL. […] This was validated by thorough mixing and reading at 600 nm on a microplate reader. […]

| input-smiles | minimal effective concentration |
| --- | --- |
| Cn1ccc(COc2ccc(Cc3cc(-c4cccnc4N)on3)cn2)n1 | > 1 µg/mL |
| Nc1ncccc1-c1cc(Cc2ccc(OCc3csc(Cl)n3)nc2)no1 | 0.1 to 1 µg/mL |
| Nc1ncccc1-c1cc(Cc2ccc(Cc3ccco3)cc2)no1 | 0.01 to 0.1 µg/mL |
| c1ccc(OCc2ccc(Cn3cc(-c4cccnc4)cn3)cc2)nc1 | > 1 µg/mL |

Then this compound:
q: Quick one: minimal effective concentration of `Nc1ncccc1-c1cc(Cc2ccc(Oc3c[n+]([O-])ccn3)cc2)no1` ?
a: > 1 µg/mL

----------
Below are MIC values recorded for Cryptococcus neoformans H99.

Check out these entries, answers already filled in.
| molecule | target-entity | result |
| --- | --- | --- |
| Nc1ncccc1-c1cc(Cc2ccc(OCc3ccnc(F)c3)nc2)no1 [Example 154] | Cryptococcus neoformans H99 | 0.01 to 0.1 mg/L |
| CC(C)(O)c1cccc(Cc2ccc(Cc3cc(-c4cccnc4N)on3)cc2)c1 [compound 209] | Cryptococcus neoformans H99 | > 1 mg/L |
| Nc1ccc(-c2cc(Cc3ccc(CNc4ccccc4)cc3)no2)c(N)n1 [compound 136] | Cryptococcus neoformans H99 | 0.1 to 1 mg/L |
| Nc1ncccc1-c1cc(Cc2ccc(Cc3cnoc3)cc2)no1 [compound 14] | Cryptococcus neoformans H99 | 0.1 to 1 mg/L |
| Nc1ncccc1-c1cc(Cc2ccc(CNc3ccc(F)c(F)c3F)cc2)no1 [compound 193] | Cryptococcus neoformans H99 | 0.1 to 1 mg/L |
| Nc1ncccc1-c1cc(Cc2ccc(Nc3c(F)cccc3F)nc2)no1 [compound 237] | Cryptococcus neoformans H99 | 0.01 to 0.1 mg/L |

q: Quick one: MIC of Nc1ncccc1-c1cc(Cc2ccc(Cc3cc(F)nc(F)c3)cc2)no1 [compound 261] ?
a: 0.1 to 1 mg/L

----------
tested on: Aspergillus fumigatus MYA3626; experiment: In vitro antifungal assay (Example IX), microdilution broth, MEC; assay type: cell-based; conditions: minimum effective concentration (shortening of hyphae), 35° C., 40-48 h, RPMI1640
quantity-kind: minimal effective concentration

| compound | quantity-kind | result |
| --- | --- | --- |
| Nc1ncccc1-c1cc(Cc2ccc(OCc3cnccn3)nc2)no1 | minimal effective concentration | 0.1 to 1 µg/mL |
| Cc1cncc(COc2ccc(Cc3cc(-c4cccnc4N)on3)cc2)c1 | minimal effective concentration | 0.01 to 0.1 µg/mL |
| Cc1ncsc1CCOc1ccc(Cc2cc(-c3cccnc3N)on2)cn1 | minimal effective concentration | > 1 µg/mL |
| Nc1ncccc1-c1cc(Cc2ccc(Cc3ccoc3)cc2)no1 | minimal effective concentration | ≤ 0.01 µg/mL |
| COc1cc(F)cc(NCc2ccc(Cc3cc(-c4cccnc4N)on3)cc2)c1 | minimal effective concentration | 0.1 to 1 µg/mL |

q: Give recorded minimal effective concentration with Aspergillus fumigatus MYA3626 for the following compound: `Nc1ncccc1-c1cc(Cc2ccc(OCCCc3ccccc3)nc2)no1`
a: 0.1 to 1 µg/mL

----------
tested on: Rhizomucor pusillus 46342; experiment: In vitro antifungal assay (Example IX), microdilution broth, MEC; assay type: cell-based; conditions: minimum effective concentration (shortening of hyphae), 35° C., 40-48 h, RPMI1640
quantity-kind: minimal effective concentration

Check out these entries, answers already filled in.
| input-smiles | minimal effective concentration |
| --- | --- |
| Nc1ncccc1-c1cc(Cc2ccc(OCc3ccnc(Cl)c3)nc2)no1 | > 1 µg/mL |
| Nc1ncccc1-c1cc(Cc2ccnc(OCC3CC3)c2)no1 | > 1 µg/mL |
| Nc1ncccc1-c1cc(Cc2ccc(Oc3ccccn3)cc2)no1 | 0.1 to 1 µg/mL |

q: Quick one: minimal effective concentration of `Nc1ncccc1-c1cc(Cc2ccc(OCc3cc(F)cc(Cl)c3)nc2)no1` ?
a: > 1 µg/mL

q: Quick one: minimal effective concentration of `N#Cc1ccc(COc2ccc(Cc3cc(-c4cccnc4N)on3)cc2)cc1` ?
a: > 1 µg/mL

q: Quick one: minimal effective concentration of `Nc1ncccc1-c1cc(Cc2ccc(OCc3ccccc3F)nc2)no1` ?
a: 0.1 to 1 µg/mL

q: Quick one: minimal effective concentration of `Nc1ncccc1-c1cc(Cc2ccc(CNc3ccc(F)c(F)c3F)cc2)no1` ?
a: 0.1 to 1 µg/mL

q: Quick one: minimal effective concentration of `CS(=O)(=O)Nc1cccc(Cc2ccc(Cc3cc(-c4cccnc4N)on3)cc2)c1` ?
a: > 1 µg/mL

q: Quick one: minimal effective concentration of `Nc1ncccc1-c1cc(Cc2cnc(SCc3ccccc3)nc2)no1` ?
a: > 1 µg/mL

Source listed as patent US11512079B2.
